- CONDITION DETAILS: [M+H]+; instrument: DT; single field, calibrated with Agilent tune mix (Agilent)

{"MOLECULE": "CCCCCCCCCCCCCCCCCC(=O)OC[C@@H](O)COP(=O)(O)OC[C@H](N)C(=O)O [LPS(18:0)]", "collision cross section (N2) (Å²)": 228.3}
{"MOLECULE": "CCCCCCCCCCCCCCCC(=O)O[C@H](CO)COP(=O)(O)OCCN [LPE(16:0)]", "collision cross section (N2) (Å²)": 213.7}
{"MOLECULE": "CCCCCCCCCC/C=C\\CCCCCCCCCC(=O)O[C@H](COC(=O)CCCCCCCCCCCCC)COP(=O)(O)OCCN [PE(36:1)]", "collision cross section (N2) (Å²)": 281.3}
{"MOLECULE": "CCCCCCCCCC/C=C\\CCCCCCCCCC(=O)O[C@H](COC(=O)CCCCCCCCCCC)COP(=O)(O)OC[C@@H](O)CO [PG(34:1)]", "collision cross section (N2) (Å²)": 286.8}
{"MOLECULE": "CCCCC/C=C\\C/C=C\\C/C=C\\CCCCC(=O)O[C@H](COC(=O)CCCCCCCCC/C=C\\C/C=C\\CCCCC)COP(=O)(O)O[C@H]1C(O)C(O)C(O)[C@@H](O)C1O (stereo partly drawn) [PI(38:5)]", "collision cross section (N2) (Å²)": 299.9}
{"MOLECULE": "CCCCCCCCCCCCC=CC[C@@H](O)[C@H](CO)NC(=O)CCCCCCCCCCCCCCCC [Cer(35:1)]", "collision cross section (N2) (Å²)": 256.3}
{"MOLECULE": "CCCCCCCCCCCCC=CC[C@@H](O)[C@H](CO)NC(=O)CC=CCCCCCCCCCCCCCC [Cer(36:2)]", "collision cross section (N2) (Å²)": 255.4}
{"MOLECULE": "CC/C=C\\C/C=C\\C/C=C\\C/C=C\\CCCCC(=O)O[C@H](COC(=O)CCCCCC/C=C\\C/C=C\\C/C=C\\CCCCC)COP(=O)([O-])OCC[N+](C)(C)C [PC(38:7)]", "collision cross section (N2) (Å²)": 288.2}
{"MOLECULE": "CCCCCC/C=C\\CCCCCCCCC(=O)OC[C@@H](O)COP(=O)([O-])OCC[N+](C)(C)C [LPC(17:1)]", "collision cross section (N2) (Å²)": 228.4}
{"MOLECULE": "CCCCCCCCCCCCC=CC[C@@H](O)[C@H](COP(=O)([O-])OCC[N+](C)(C)C)NC(=O)CCCCCCCCCCCCCCCCCCCCCC [SM(41:1)]", "collision cross section (N2) (Å²)": 302.9}
{"MOLECULE": "CCCCC/C=C\\C/C=C\\CCCCCCCCCCCC(=O)O[C@H](COC(=O)CCCCCCCCCCCCC)COP(=O)(O)OC[C@H](N)C(=O)O [PS(36:2)]", "collision cross section (N2) (Å²)": 283}
{"MOLECULE": "CCCCCC/C=C\\CCCCCCCC(=O)OC[C@H](COP(=O)(O)O[C@H]1C(O)C(O)C(O)[C@@H](O)C1O)OC(=O)CCCCCCCCC/C=C\\CCCCCCCCCC (stereo partly drawn) [PI(38:2)]", "collision cross section (N2) (Å²)": 305.1}
{"MOLECULE": "CCCCCCCCCCCCC=CC[C@@H](O)[C@H](CO)NC(=O)CCCCCCCCCCCCCCCCCCCC [Cer(39:1)]", "collision cross section (N2) (Å²)": 269}
